These entries and their values trace back to paper PMC9895041.

- Substrate: OC[C@@H](O)[C@H](O)[C@@H](O)CO
- procedureDetails: purified protein
- measurementContext: 1-10 mM xylitol, 1.5 mM NAD+, 50 mM Tris-HCl pH 8.0, 30 °C
endpointName: Km (mM)
The reply should be a number in mM, with the unit left off.

Consider the reported Km for these proteins:
{"columns": ["protein", "endpointName", "valueMeasured"],
 "data": [
  ["SpXDH wild type (xylitol dehydrogenase, SPBC1773.05c protein from Schizosaccharomyces pombe) (enzyme, UniProt P36624 1-360, looked up, cloned into pQE-81L; also called SpXDHWT; WT; source: E. coli DH5α, purified (Ni-NTA)) MAPAEKAFVLRKKMDTAIEDRPGQTLTDDHQVKVAIKATGICGSDVHYWKEGGIGDFILKKPMILGHESAGVVVEVGKGVSSLKPGDPVAVEPGCVCRLCDYCRSGRYNLCPHMEFAATPPYDGTLRTYYITTEDFCTKLPKQISVEEGALFEPMSVAVHAMTRGNLKCGSRVLVMGCGTVGLLMMAVAKAYGAIDIVAVDASPSRVEFAQKYVGAKPFTPIAAKENESLPDYAQRYKQAIIEKYGEFDFAVDATGVGICIHTAVLALKRGGTFVQAGNGKPVIDFPINHIINYEINVLGSFRYAHGCYKQSLFLVSNGLVDVKPLITHRFAFKDALKAYETVASGEEGVLKVIIGGPDA", "Km", 6.10],
  ["SpXDH (Schizosaccharomyces pombe 972h-; C111D) (protein) MAPAEKAFVLRKKMDTAIEDRPGQTLTDDHQVKVAIKATGICGSDVHYWKEGGIGDFILKKPMILGHESAGVVVEVGKGVSSLKPGDPVAVEPGCVCRLCDYCRSGRYNLDPHMEFAATPPYDGTLRTYYITTEDFCTKLPKQISVEEGALFEPMSVAVHAMTRGNLKCGSRVLVMGCGTVGLLMMAVAKAYGAIDIVAVDASPSRVEFAQKYVGAKPFTPIAAKENESLPDYAQRYKQAIIEKYGEFDFAVDATGVGICIHTAVLALKRGGTFVQAGNGKPVIDFPINHIINYEINVLGSFRYAHGCYKQSLFLVSNGLVDVKPLITHRFAFKDALKAYETVASGEEGVLKVIIGGPDA", "Km", 9.76]
]}

// switching to the query protein
Documented Km of SpXDH C100S mutant (enzyme, Schizosaccharomyces pombe, UniProt P36624 1-360, looked up, SPBC1773.05c protein of S. pombe (SpXDH), cloned into pQE-81L; source: E. coli DH5α, purified (Ni-NTA)) MAPAEKAFVLRKKMDTAIEDRPGQTLTDDHQVKVAIKATGICGSDVHYWKEGGIGDFILKKPMILGHESAGVVVEVGKGVSSLKPGDPVAVEPGCVCRLSDYCRSGRYNLCPHMEFAATPPYDGTLRTYYITTEDFCTKLPKQISVEEGALFEPMSVAVHAMTRGNLKCGSRVLVMGCGTVGLLMMAVAKAYGAIDIVAVDASPSRVEFAQKYVGAKPFTPIAAKENESLPDYAQRYKQAIIEKYGEFDFAVDATGVGICIHTAVLALKRGGTFVQAGNGKPVIDFPINHIINYEINVLGSFRYAHGCYKQSLFLVSNGLVDVKPLITHRFAFKDALKAYETVASGEEGVLKVIIGGPDA : 16.2
